- assayed_target: UniProt:P14902
- Sequence (P14902 whole entry): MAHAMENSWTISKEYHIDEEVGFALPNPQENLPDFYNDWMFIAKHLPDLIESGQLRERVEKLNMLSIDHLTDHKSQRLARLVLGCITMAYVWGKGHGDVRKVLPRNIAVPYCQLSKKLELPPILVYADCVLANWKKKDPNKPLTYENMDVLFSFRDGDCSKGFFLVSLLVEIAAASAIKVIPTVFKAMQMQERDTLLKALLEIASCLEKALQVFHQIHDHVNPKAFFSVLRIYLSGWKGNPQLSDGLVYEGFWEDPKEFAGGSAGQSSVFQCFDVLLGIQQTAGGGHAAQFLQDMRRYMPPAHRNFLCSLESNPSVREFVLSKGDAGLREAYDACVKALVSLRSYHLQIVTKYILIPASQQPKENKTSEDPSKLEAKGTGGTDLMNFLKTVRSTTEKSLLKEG
- method_notes: Inhibition of IDO1 in IFN-gamma stimulated human HeLa cells assessed as reduction in kynurenine production using L-tryptophan as substrate incubated for 24 hrs
Some molecules, each annotated with its measured IC50.

{"columns": ["molecule", "display_unit", "bound_sign", "IC50"],
 "data": [
  ["Cc1ccc(-c2csc3ncn(CC(=O)Nc4cccc5ccccc45)c(=O)c23)cc1", "µM", "=", 20.1],
  ["CCNC(=O)C(=O)N/N=C/c1c(O)ccc2ccccc12", "µM", ">", 30],
  ["CN(C)c1ccc(C(=O)N/N=C/c2c(O)ccc3ccccc23)cc1", "µM", "=", 21.1],
  ["COc1ccccc1C(=O)N/N=C/c1c(O)ccc2ccccc12", "µM", "=", 11.3],
  ["COc1ccc(CC(=O)N/N=C/c2c(O)ccc3ccccc23)cc1", "µM", ">", 30],
  ["COc1cccc(NCc2nnc3n2N=C(c2cccc(OC)c2)CS3)c1", "µM", ">", 30],
  ["Cc1ccc(OCC(=O)N/N=C/c2c(O)ccc3ccccc23)c(C)c1", "µM", ">", 30],
  ["O=C(Cn1cnc2scc(-c3ccc(Cl)cc3)c2c1=O)NCc1ccco1", "µM", "=", 12.4],
  ["Oc1ccccc1CN1CCCC(c2n[nH]cc2-c2ccc(Cl)cc2)C1 (stereo not given)", "µM", "=", 18.6],
  ["CCC(Nc1ccc(Cl)cc1C)C(=O)N/N=C/c1c(O)ccc2ccccc12 (stereo not given)", "µM", "=", 2.1]
]}

Source of measurements: ChEMBL document CHEMBL4406863
